Tested on: 596521-263-R-J1-PDC complex spheroid growth
Test: Anticancer human tumor 596521-263-R-J1-PDC patient-derived soft tissue sarcoma cell line growth inhibition [Asc]
Conditions: second compound 0.00949 µM; first compound 10 µM; stronger effect = lower value
QUANTITY NAME: viability, T/C (%)
Give the value in % but do not write % after it.

For the compound shown here, O=C(c1cc(Cc2n[nH]c(=O)c3ccccc23)ccc1F)N1CCN(C(=O)C2CC2)CC1 + CCN1C(C(=O)NC23CCC(C(=O)O)(CC2)CC3)C(c2cccc(Cl)c2F)C2(C(=O)Nc3cc(Cl)ccc32)C12CCCCC2 , give the reported viability, T/C. 67.5

For the compound shown here, C=CC(=O)N1CCN(c2nc(=O)n(-c3c(C)ccnc3C(C)C)c3nc(-c4c(O)cccc4F)c(F)cc23)C(C)C1 (centres undefined) + CCN1C(C(=O)NC23CCC(C(=O)O)(CC2)CC3)C(c2cccc(Cl)c2F)C2(C(=O)Nc3cc(Cl)ccc32)C12CCCCC2 , give the reported viability, T/C. 70.7

For the compound shown here, C=C(F)C(=O)N1CCN(c2nc(OCC3CCCN3C)nc3c2CCN(c2cccc4cccc(Cl)c24)C3)CC1CC#N (centres undefined) + CCN1C(C(=O)NC23CCC(C(=O)O)(CC2)CC3)C(c2cccc(Cl)c2F)C2(C(=O)Nc3cc(Cl)ccc32)C12CCCCC2 , give the reported viability, T/C. 0.73

For the compound shown here, C#Cc1c(F)ccc2cc(O)cc(-c3ncc4c(N5CC6CCC(C5)N6)nc(OCC56CCCN5CC(F)C6)nc4c3F)c12 (centres undefined) + CCN1C(C(=O)NC23CCC(C(=O)O)(CC2)CC3)C(c2cccc(Cl)c2F)C2(C(=O)Nc3cc(Cl)ccc32)C12CCCCC2 , give the reported viability, T/C. 87.7

---

Tested on: 596521-263-R-J1-PDC complex spheroid growth
Assay: Anticancer human tumor 596521-263-R-J1-PDC cell line growth inhibition [Asc];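 note: spheroids exposed to compounds for 7 days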
Conditions: second compound 0.1 µM; first compound 10 µM; stronger effect = lower value
QUANTITY NAME: viability, T/C (%)
Give the value in % but do not write % after it.

Query the reported viability, T/C for 596521-263-R-J1-PDC complex spheroid growth; item: C#Cc1c(F)ccc2cc(O)cc(-c3ncc4c(N5CC6CCC(C5)N6)nc(OCC56CCCN5CC(F)C6)nc4c3F)c12 (stereo not drawn) + CNC(C)C(=O)NC1CN(S(=O)(=O)c2cccc(S(=O)(=O)N3CCC4CCC(C(=O)NC(c5ccccc5)c5ccccc5)N4C(=O)C(NC(=O)C(C)NC)C3)c2)CCC2CCC(C(=O)NC(c3ccccc3)c3ccccc3)N2C1=O 72.3

Query the reported viability, T/C for 596521-263-R-J1-PDC complex spheroid growth; item: O=C(c1cc(Cc2n[nH]c(=O)c3ccccc23)ccc1F)N1CCN(C(=O)C2CC2)CC1 + CNC(C)C(=O)NC1CN(S(=O)(=O)c2cccc(S(=O)(=O)N3CCC4CCC(C(=O)NC(c5ccccc5)c5ccccc5)N4C(=O)C(NC(=O)C(C)NC)C3)c2)CCC2CCC(C(=O)NC(c3ccccc3)c3ccccc3)N2C1=O 37.7

Query the reported viability, T/C for 596521-263-R-J1-PDC complex spheroid growth; item: O=C(c1cc(Cc2n[nH]c(=O)c3ccccc23)ccc1F)N1CCN(C(=O)C2CC2)CC1 + Cc1c(S(C)(=O)=O)c(-c2cc(F)cc(N3CCN(c4ccc(NS(=O)(=O)c5ccc(NC(CCN6CCC(C(=O)OCCCP(=O)(O)O)CC6)CSc6ccccc6)c(S(=O)(=O)C(F)(F)F)c5)cc4)CC3)c2)c(-c2ccc(Cl)cc2)n1C(C)C 54
